Reported sfGFP reporter fluorescence values are given for each entry in this list.
B1: library; numbered along this chain (parent)
chain: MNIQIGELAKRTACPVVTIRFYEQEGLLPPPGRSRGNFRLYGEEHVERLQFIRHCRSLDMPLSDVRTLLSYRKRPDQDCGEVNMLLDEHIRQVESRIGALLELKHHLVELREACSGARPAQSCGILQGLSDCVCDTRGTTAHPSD

Variants of: B1
Assay Protocol: sfGFP reporter fluorescence (15 h) (µM FITC); higher = higher leak
Condition Notes: library round: Round 0; ligand: none
API doc: respond with a numeric literal and nothing else, no unit.

Field: example entries. Status: answers known.
Sequence Variant: V82H
sfGFP reporter fluorescence: 0.0594
--
Sequence Variant: E112L
sfGFP reporter fluorescence: 0.0603

Challenge: Tell me its sfGFP reporter fluorescence given `P30N` as the entry.
Response given: 0.0605

Challenge: Tell me its sfGFP reporter fluorescence given `C114M` as the entry.
Response given: 0.0594

Challenge: Tell me its sfGFP reporter fluorescence given `R33P` as the entry.
Response given: 0.0607

Challenge: Tell me its sfGFP reporter fluorescence given `E43Y` as the entry.
Response given: 0.0599

Challenge: Tell me its sfGFP reporter fluorescence given `E94N` as the entry.
Response given: 0.0607
